- study_target: ovine FcRn complex (ovine) (UniProt Q6QAT4)
- Sequence (main, as listed by the source, chain 1 of 2): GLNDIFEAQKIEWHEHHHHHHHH
- Sequence (Q6QAT4 other isoform, or with tags, fused parts or gaps, chain 2 of 2): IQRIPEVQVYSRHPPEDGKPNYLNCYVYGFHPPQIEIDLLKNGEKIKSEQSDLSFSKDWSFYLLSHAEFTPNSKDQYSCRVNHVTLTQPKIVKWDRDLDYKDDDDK
- method_summary: SPR (Biacore 8K+), pH 5.9, 25 C; FcRn captured by anti-His, IgG as analyte; 1:1 kinetic model
Lab note: compare Fold increase over wild-type KD against 6 fold. Equal or greater, write satisfied. Smaller, write not satisfied.

{"columns": ["binder", "class_assignment"],
 "data": [
  ["Ovine Q311V (antibody, part only; not given: variable domains and light chain, IgG1, not shown: another chain or arm of the molecule) Fc: PELPGGPSVFIFPPKPKDTLTISGTPEVTCVVVDVGQDDPEVQFSWFVDNVEVRTARTKPREEQFNSTFRVVSALPIQHVDWTGGKEFKCKVHNEALPAPIVRTISRTKGQAREPQVYVLAPPQEELSKSTLSVTCLVTGFYPDYIAVEWQKNGQPESEDKYGTTTSQLDADGSYFLYSRLRVDKNSWQEGDTYACVVMHEALHNHYTQKSISKPPGK", "not satisfied"],
  ["Ovine N434Y (antibody, part only; not given: variable domains and light chain, IgG1, not shown: another chain or arm of the molecule) Fc: PELPGGPSVFIFPPKPKDTLTISGTPEVTCVVVDVGQDDPEVQFSWFVDNVEVRTARTKPREEQFNSTFRVVSALPIQHQDWTGGKEFKCKVHNEALPAPIVRTISRTKGQAREPQVYVLAPPQEELSKSTLSVTCLVTGFYPDYIAVEWQKNGQPESEDKYGTTTSQLDADGSYFLYSRLRVDKNSWQEGDTYACVVMHEALHYHYTQKSISKPPGK", "satisfied"],
  ["Ovine T252Y (antibody, part only; not given: variable domains and light chain, IgG1, not shown: another chain or arm of the molecule) Fc: PELPGGPSVFIFPPKPKDTLYISGTPEVTCVVVDVGQDDPEVQFSWFVDNVEVRTARTKPREEQFNSTFRVVSALPIQHQDWTGGKEFKCKVHNEALPAPIVRTISRTKGQAREPQVYVLAPPQEELSKSTLSVTCLVTGFYPDYIAVEWQKNGQPESEDKYGTTTSQLDADGSYFLYSRLRVDKNSWQEGDTYACVVMHEALHNHYTQKSISKPPGK", "satisfied"],
  ["Ovine M428Y (antibody, part only; not given: variable domains and light chain, IgG1, not shown: another chain or arm of the molecule) Fc: PELPGGPSVFIFPPKPKDTLTISGTPEVTCVVVDVGQDDPEVQFSWFVDNVEVRTARTKPREEQFNSTFRVVSALPIQHQDWTGGKEFKCKVHNEALPAPIVRTISRTKGQAREPQVYVLAPPQEELSKSTLSVTCLVTGFYPDYIAVEWQKNGQPESEDKYGTTTSQLDADGSYFLYSRLRVDKNSWQEGDTYACVVYHEALHNHYTQKSISKPPGK", "not satisfied"],
  ["Ovine Q309V (antibody, part only; not given: variable domains and light chain, IgG1, not shown: another chain or arm of the molecule) Fc: PELPGGPSVFIFPPKPKDTLTISGTPEVTCVVVDVGQDDPEVQFSWFVDNVEVRTARTKPREEQFNSTFRVVSALPIVHQDWTGGKEFKCKVHNEALPAPIVRTISRTKGQAREPQVYVLAPPQEELSKSTLSVTCLVTGFYPDYIAVEWQKNGQPESEDKYGTTTSQLDADGSYFLYSRLRVDKNSWQEGDTYACVVMHEALHNHYTQKSISKPPGK", "satisfied"]
]}

This collection of values is drawn from patent US20220177549A1.
